Test system: Mast/stem cell growth factor receptor Kit (Homo sapiens), P10721 [T670I]
Sequence (P10721 whole entry T670I): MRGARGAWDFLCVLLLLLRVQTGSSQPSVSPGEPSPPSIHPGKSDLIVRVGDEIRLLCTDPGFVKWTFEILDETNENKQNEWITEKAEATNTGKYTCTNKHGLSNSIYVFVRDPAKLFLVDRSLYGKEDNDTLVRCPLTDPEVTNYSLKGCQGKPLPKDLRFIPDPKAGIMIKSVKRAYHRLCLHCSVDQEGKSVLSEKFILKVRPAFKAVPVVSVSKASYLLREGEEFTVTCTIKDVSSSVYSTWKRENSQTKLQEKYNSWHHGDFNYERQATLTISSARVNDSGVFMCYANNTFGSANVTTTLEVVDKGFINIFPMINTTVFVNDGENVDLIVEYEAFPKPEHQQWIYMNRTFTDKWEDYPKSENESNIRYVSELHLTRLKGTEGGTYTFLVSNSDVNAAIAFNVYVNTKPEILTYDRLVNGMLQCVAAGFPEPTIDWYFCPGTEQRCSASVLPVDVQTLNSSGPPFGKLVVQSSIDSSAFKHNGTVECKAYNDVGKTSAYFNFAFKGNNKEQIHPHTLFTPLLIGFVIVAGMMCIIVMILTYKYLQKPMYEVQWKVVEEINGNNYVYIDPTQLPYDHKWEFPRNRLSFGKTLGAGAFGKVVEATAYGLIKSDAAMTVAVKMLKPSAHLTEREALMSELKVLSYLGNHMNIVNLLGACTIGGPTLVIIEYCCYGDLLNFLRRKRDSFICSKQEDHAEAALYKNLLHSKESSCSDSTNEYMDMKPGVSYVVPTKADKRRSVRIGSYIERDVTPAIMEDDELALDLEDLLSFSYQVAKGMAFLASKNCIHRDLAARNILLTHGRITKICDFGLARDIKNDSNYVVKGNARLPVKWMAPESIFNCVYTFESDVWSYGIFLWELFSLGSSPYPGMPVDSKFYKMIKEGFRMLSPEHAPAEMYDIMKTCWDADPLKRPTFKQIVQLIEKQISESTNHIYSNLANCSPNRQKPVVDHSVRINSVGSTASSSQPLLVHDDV
Experimental context: at 0.1 µM
Recorded endpoint: inhibition (%)
Numbers only, in %.

Below, 5 molecules whose answers are already recorded.
Molecule: COc1ccc2ncn(-c3cc(O[C@H](C)c4ccccc4C(F)(F)F)c(C(N)=O)s3)c2c1
Units symbol: %
Recorded result: 1.09
--
Molecule: Cc1cc(O)cc(C)c1/C=C/c1cncc(C(=O)OC(C)(C)C)c1
Units symbol: %
Recorded result: 4.32
--
Molecule: CNC(=O)c1ncccc1Nc1nc(Nc2cc3c(cc2OC)CCCN3C(=O)CN(C)C)nc2[nH]ccc12
Units symbol: %
Recorded result: 3.12
--
Molecule: COc1cc2c(cc1Nc1nc(Nc3cccc(F)c3C(N)=O)c3cc[nH]c3n1)N(C(=O)CN1CCN(C(C)C)CC1)CC2
Units symbol: %
Recorded result: -0.28
--
Molecule: CN1CCC(n2cnc(-c3ccc(F)cc3)c2-c2ccnc(NCCO)n2)CC1
Units symbol: %
Recorded result: 3.05

State recorded inhibition for all listed molecules.
1. O=C(O[C@H]1CN[C@H](C#Cc2cc3ncnc(Nc4ccc(OCc5cccc(F)c5)c(Cl)c4)c3s2)C1)N1CCOCC1
2. OCCCNc1nccc(-c2c(-c3ccc(F)cc3)nn3cc(C(F)(F)F)ccc23)n1
3. O=C(Nc1n[nH]c2nnc(-c3cccnc3)cc12)C1CC1
4. Fc1cccc(COc2ccc(Nc3ncncc3C#Cc3ccccc3)cc2Cl)c1
5. COc1ccc(-c2nn3ncccc3c2-c2ccnc(Nc3ccc(F)c(F)c3)n2)cc1
6. CS(=O)(=O)Nc1ccc(-c2cc(-c3ccccc3)cc(C(N)=O)c2N)cc1
7. CCS(=O)(=O)c1ccc(OC)c(Nc2ncc(-c3cccc(F)c3)o2)c1
8. CC1=C(C(=O)Nc2ccc3[nH]nc(C)c3c2)C(c2ccc(C(F)(F)F)cc2)CC(=O)N1 (stereo not given)

OUT:
4.04
-0.18
-0.12
3.83
3.81
-1.07
19.7
-0.21

Need inhibition for each of these molecules.
1. COc1cccc(-n2ncc3c(N/N=C/c4ccc(C(=O)NCCN(C)C)cc4)ncnc32)c1
2. CCOc1ccc2c(-c3ccnc(Nc4cc(OC)cc(C(F)(F)F)c4)n3)cnn2n1
3. Cc1nnc(-c2cccc(-c3ccc(C(=O)NCC4CC4)cc3)c2)o1
4. c1ccc(-c2n[nH]cc2-c2ccnc(-c3ccc(OCCn4ccnc4)cc3)c2)nc1

OUT:
1: 6.62; 2: 1.55; 3: 5.46; 4: 1.86

List the reported inhibition of each molecule below.
1. CC1=C(C(=O)Nc2ccc3[nH]ncc3c2)C(c2ccc(F)cc2)N=C(c2ccc(C(F)(F)F)nc2)N1 (stereo not given)
2. COc1ccc(Nc2ncc(-c3ccccc3)o2)cc1OC
3. COc1cc(Nc2ncc(-c3ccccc3)o2)cc(OC)c1

OUT:
[1.78, 46.1, 21.6]

----------
Give inhibition for every item shown.
Assayed system: Serine/threonine-protein kinase PLK1 (Homo sapiens);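 further: reported value is a mean PLK1 inhibition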
Experimental context: at 1 µM

Compound: COc1cc(Nc2ncc(-c3ccccc3)o2)cc(OC)c1
inhibition: 2.5%
--
Compound: CC1=C(C(=O)Nc2ccc3[nH]ncc3c2)C(c2ccc(F)cc2)N=C(c2ccc(C(F)(F)F)nc2)N1 (centres undefined)
inhibition: 1.78%
--
Compound: CNC(=O)c1ncccc1Nc1nc(Nc2cc3c(cc2OC)CCCN3C(=O)CN(C)C)nc2[nH]ccc12
inhibition: 92.8%
--
Compound: COc1ccccc1-c1cc(/C=C2\C(=O)Nc3ncc(Br)cc32)cc(Br)c1O
inhibition: 9.04%
--
Compound: CS(=O)(=O)CCNCc1ccc(-c2ccc3ncnc(Nc4ccc(OCc5cccc(C(F)(F)F)c5)cc4)c3c2)o1
inhibition: 6.5%
--
Compound: CS(=O)(=O)Nc1ccc(-c2cc(-c3ccccc3)cc(C(N)=O)c2N)cc1
inhibition: 3.05%

Give inhibition for all compounds that follow.
1. CS(=O)(=O)CCNCc1ccc(-c2ccc3ncnc(Nc4ccc(OCc5ccccc5)cc4)c3c2)o1
2. CCN1CCC(C(=O)Nc2n[nH]c3nnc(-c4cccc(F)c4F)cc23)CC1
3. O=C(O[C@H]1CN[C@H](C#Cc2cc3ncnc(Nc4ccc(OCc5cccc(F)c5)c(Cl)c4)c3s2)C1)N1CCOCC1

OUT:
1: 3.52%; 2: -0.89%; 3: 4.55%
